Data origin: ChEMBL document CHEMBL1155799

targetSystem: 5-hydroxytryptamine receptor 1A (Homo sapiens, UniProt P08908)
Sequence (P08908 whole entry): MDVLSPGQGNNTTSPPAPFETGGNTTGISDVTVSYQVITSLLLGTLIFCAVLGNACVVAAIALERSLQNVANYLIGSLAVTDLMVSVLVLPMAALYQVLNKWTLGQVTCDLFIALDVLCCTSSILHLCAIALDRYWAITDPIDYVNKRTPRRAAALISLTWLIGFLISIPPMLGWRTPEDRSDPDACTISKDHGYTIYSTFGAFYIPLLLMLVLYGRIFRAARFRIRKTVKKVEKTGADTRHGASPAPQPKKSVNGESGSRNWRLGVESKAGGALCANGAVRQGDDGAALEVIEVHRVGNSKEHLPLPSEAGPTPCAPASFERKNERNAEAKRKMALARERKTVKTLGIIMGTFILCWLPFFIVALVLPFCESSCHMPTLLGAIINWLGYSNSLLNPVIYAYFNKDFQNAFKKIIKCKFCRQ
resultType: pKi
When answering, recall that pKi equals minus log10 of the concentration in mol/L, and write that number alone.

>  <molecule>
O=C(CCCN1C2CCC1CC(O)(c1ccccc1)C2)c1ccc(F)cc1 (configuration not stated)

>  <pKi>
7.42

$$$$

Then there is this molecule:
Given the molecule O=C(CCCN1C2CCC1CC(c1ccccc1)C2)c1ccc(F)cc1 (configuration not stated) , write its reported pKi.
6.38
